The compounds listed here are annotated with their remaining activity at 100 µM.
# measuredOn: E. coli CsgA (Escherichia coli, UniProt P28307)
# Construct: made in house; host or cells: E. coli NEB 3016 slyD::kan, pET11d
# Sequence (P28307 23-151): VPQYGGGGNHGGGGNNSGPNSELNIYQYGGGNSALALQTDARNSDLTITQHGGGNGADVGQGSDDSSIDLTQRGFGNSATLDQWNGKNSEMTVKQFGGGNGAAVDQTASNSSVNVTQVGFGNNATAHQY
# assaySummary: In vitro ThioflavinT assay of CsgA aggregation (CsgA ThT Assay)
# Assay type: biochemical
# conditionLabel: read-out: CsgA ThT Assay (10 μM CsgA) % Control AUC at 1005 minutes, 100 μM (activity range), CsgA 10 μM, black plates; compound 100 μM; 1005 minutes; class symbol

Previously resolved entries follow.
compound | observable | dataValue
CN1CC(C(=O)O)n2c1c(-c1cccc(C(F)(F)F)c1)c(Cc1cccc3ccccc13)cc2=O (stereo not drawn) | remaining activity at 100 µM | 31 to 60%
CCCc1sc2c(-c3cccc(C(F)(F)F)c3)c(Cc3cccc4ccccc34)cc(=O)n2c1C(=O)O | remaining activity at 100 µM | 31 to 60%
CCCN1CC(C(=O)O)n2c(c(-c3cccc(C(F)(F)F)c3)c(Cc3cccc4ccccc34)c(NCC3CCCC3)c2=O)S1(=O)=O (stereo not drawn) | remaining activity at 100 µM | 11 to 31%
CN1CC(C(=O)O)n2c(c(-c3cccc(C(F)(F)F)c3)c(Cc3cccc4ccccc34)cc2=O)S1(=O)=O (single isomer, unassigned) [Compound 008a] | remaining activity at 100 µM | 31 to 60%
CN1CC(C(=O)O)n2c1c(-c1cccc(C(F)(F)F)c1)c(Cc1cccc3ccccc13)c(Br)c2=O (stereo not drawn) | remaining activity at 100 µM | 31 to 60%

Could you now look at the following compound, please?
Write down measured remaining activity at 100 µM (E. coli CsgA (Escherichia coli, UniProt P28307)) for this compound. CCCN1CC(C(=O)O)n2c(c(-c3cccc(C(F)(F)F)c3)c(Cc3cccc4ccccc34)c(OCCc3ccccc3)c2=O)S1(=O)=O (stereo not drawn)
31 to 60%

* * *

Overview of recorded inhibition at 100 µM for various compounds
# measuredOn: human α-synuclein (Homo sapiens)
# Construct: the full-length gene for untagged human α-synuclein was inserted; made in house; host or cells: E. coli BL21(DE3), plasmid derived from pT7 or pET11a
# assaySummary: Cell-free Thioflavin T assay of α-synuclein aggregation (αSyn ThT Assay)
# Assay type: biochemical
# conditionLabel: class symbol; αSyn 50 μM, compounds 100 μM; read-out: αSyn ThT Assay % inhibition, activity range

Look over these answered cases.
compound | measuredOn | inhibition at 100 µM
CCCN1CC(C(=O)O)n2c(c(-c3cccc(C(F)(F)F)c3)c(Cc3cccc4ccccc34)c(C(N)=O)c2=O)S1(=O)=O (stereo not drawn) | human α-synuclein (Homo sapiens) | > 60%
COc1cc(Cc2c(-c3cccc(C(F)(F)F)c3)c3n(c(=O)c2Cl)C(C(=O)O)CN3Cc2ccccc2)c2ccccc2c1 (stereo not drawn) | human α-synuclein (Homo sapiens) | > 60%

Okay, now this compound:
State, in one line, measured inhibition at 100 µM of CCCCN1CC(C(=O)O)n2c(c(-c3cccc(C(F)(F)F)c3)c(Cc3cccc4ccccc34)c(C(N)=O)c2=O)S1(=O)=O (stereo not drawn)
> 60%

* * *

Listed next: entries and their corresponding remaining activity at 25 µM.
# measuredOn: E. coli CsgA (Escherichia coli)
# Construct: made in house; host or cells: E. coli NEB 3016 slyD::kan, pET11d
# assaySummary: In vitro ThioflavinT assay of CsgA aggregation (CsgA ThT Assay)
# Format: biochemical
# conditionLabel: read-out: CsgA ThT Assay (10 μM CsgA) % Control AUC at 1005 minutes, 25 μM, mean AUC as % of DMSO control; CsgA 10 μM, black plates; compound 25 μM; 1005 minutes
Provide the measurement as a number trailed by its unit.

Consider the following illustrative entries.
molecule | dataValue
O=C(O)CC1CSc2c(-c3cccc(C(F)(F)F)c3)c(Cc3cccc4ccccc34)cc(=O)n21 (stereo not drawn) | 28%
CCCN1CC(C(=O)O)n2c(c(-c3cccc(C(F)(F)F)c3)c(Cc3cccc4ccccc34)c(OCCc3ccccc3)c2=O)S1(=O)=O (stereo not drawn) | 36%
CCCN1CC(C(=O)O)n2c(c(-c3cccc(C(F)(F)F)c3)c(Cc3cccc4ccccc34)c(NCC3CCCC3)c2=O)S1(=O)=O (stereo not drawn) | 29%

Tell me measured remaining activity at 25 µM for CNC(=O)CCCCN1CC(C(=O)O)n2c(c(-c3cccc(C(F)(F)F)c3)c(Cc3cccc4ccccc34)cc2=O)S1(=O)=O (stereo not drawn) please.
86%

Consider the molecule O=C(O)C1n2c(c(-c3cccc(C(F)(F)F)c3)c(Cc3cccc4ccccc34)nc2=O)SC12CCCC2 (stereo not drawn) and give its recorded remaining activity at 25 µM.
39%

Give remaining activity at 25 µM for the following molecule: COc1ccc(CN2C[C@H](C(=O)O)n3c(c(-c4cccc(C(F)(F)F)c4)c(Cc4cccc5ccccc45)cc3=O)S2(=O)=O)cc1 (single isomer, unassigned) [Compound 026b]
47%

* * *

# measuredOn: E. coli CsgA (Escherichia coli, UniProt P28307)
# Construct: made in house; host or cells: E. coli NEB 3016 slyD::kan, pET11d
# assaySummary: In vitro ThioflavinT assay of CsgA aggregation (CsgA ThT Assay)
# Type: biochemical
# conditionLabel: read-out: CsgA ThT Assay (10 μM CsgA) % Control AUC at 1005 minutes, 25 μM, mean AUC as % of DMSO control; CsgA 10 μM, black plates; compound 25 μM; 1005 minutes
# Experimental: In vitro ThioflavinT assay to determine effects of compounds on CsgA aggregation. […] Protein concentration was assessed by the NanoDrop technique (Thermo Scientific), as is familiar to one skilled in the art. […] During the assay, plates were shaken initially for 5 seconds and subsequently for 3 seconds prior to fluorescent readings. Readings were performed every 15 minutes for up to 1005 minutes. The effect of compounds on CsgA aggregation in the assay was determined with data from 0-17 hours. […]
remaining activity at 25 µM strictly under 60% means true; at 60% or over means false.

Consider the worked cases shown below.
molecule | assignedLabel
Nc1c(Cc2cccc3ccccc23)c(-c2cccc(C(F)(F)F)c2)c2n(c1=O)C(C(=O)O)CO2 (stereo not shown) | true
Cn1c(=O)c2c(nc(CCCCCCN3CC(C(=O)O)n4c(c(-c5cccc(C(F)(F)F)c5)c(Cc5cccc6ccccc56)cc4=O)S3(=O)=O)n2C)n(C)c1=O (stereo not shown) | true
CCCCN1CC(C(=O)O)n2c(c(-c3cccc(C(F)(F)F)c3)c(Cc3cccc4ccccc34)c(N)c2=O)S1(=O)=O (stereo not shown) | true
CCCN1CC(C(=O)O)n2c(c(-c3cccc(C(F)(F)F)c3)c(Cc3cccc4ccccc34)c(C(C)C)c2=O)S1(=O)=O (stereo not shown) | true
CN1CC(C(=O)O)n2c(c(-c3cccc(C(F)(F)F)c3)c(Cc3cccc4ccccc34)c(C(N)=O)c2=O)S1(=O)=O (stereo not shown) | true

In plain terms, does O=C(O)CN1CC(C(=O)O)n2c(c(-c3cccc(C(F)(F)F)c3)c(Cc3cccc4ccccc34)cc2=O)S1(=O)=O (stereo not shown) come in under 60% for remaining activity at 25 µM?
false

Determine if "Cn1cc(C(=O)O)n2c(=O)cc(Cc3cccc4ccccc34)c(-c3cccc(C(F)(F)F)c3)c12" shows remaining activity at 25 µM strictly lower than 60%.
false

Just wondering, is remaining activity at 25 µM of Cn1c(=O)c2c(ncn2CCCCN2CC(C(=O)O)n3c(c(-c4cccc(C(F)(F)F)c4)c(Cc4cccc5ccccc45)cc3=O)S2(=O)=O)n(C)c1=O (stereo not shown) below 60%?
false

Consider CCCc1c(Cc2cccc3ccccc23)c(-c2cccc(C(F)(F)F)c2)c2n(c1=O)C(C(=O)O)CN(C)S2(=O)=O (stereo not shown) . Does its remaining activity at 25 µM lie strictly below 60%?
true

Lab note: remaining activity at 25 µM threshold 60%. Does this molecule come in strictly under it? O=c1cc(Cc2cccc3ccccc23)c(-c2cccc(C(F)(F)F)c2)c2n1C(CO)CS2 (stereo not shown)
false

Input Nc1c(Cc2cccc3ccccc23)c(-c2cccc(C(F)(F)F)c2)c2n(c1=O)C(C(=O)O)CN(C[C@H](O)[C@@H](O)[C@H](O)[C@H](O)CO)S2(=O)=O (stereo partly shown) ; condition: remaining activity at 25 µM strictly below 60%. Does it hold?
false

Please determine if CCCCCN1CC(C(=O)O)n2c(c(-c3cccc(C(F)(F)F)c3)c(Cc3cccc4ccccc34)cc2=O)S1(=O)=O (racemic) [Compound 025] is below 60% in terms of remaining activity at 25 µM.
true

Given CN1CC(C(=O)O)n2c(c(-c3cccc(C(F)(F)F)c3)c(Cc3ccc(N)c4ccccc34)cc2=O)S1(=O)=O (stereo not shown) , is recorded remaining activity at 25 µM strictly lower than 60%?
false

* * *

Consider the following compounds and their measured inhibition at 100 µM readings.
# measuredOn: human α-synuclein (Homo sapiens, UniProt P37840)
# Construct: the full-length gene for untagged human α-synuclein was inserted; made in house; host or cells: E. coli BL21(DE3), plasmid derived from pT7 or pET11a
# assaySummary: Cell-free Thioflavin T assay of α-synuclein aggregation (αSyn ThT Assay)
# Type: biochemical
# conditionLabel: mean % inhibition of αSyn aggregation relative to DMSO control; αSyn 50 μM; compounds at 100 μM; read-out: αSyn ThT Assay % Inhibition
# Method: To assess the effects of compounds on aggregation of α-synuclein, a cell-free assay was performed using purified α-synuclein and Thioflavin T. In the assay, human α-synuclein was expressed in E. coli BL21(DE3) from a plasmid derived from pT7 or pET11a into which the full-length gene for untagged human α-synuclein was inserted. […] Readings were performed hourly for up to 73 hours. […]
Use % as the unit, but write only the number.

// below: answered compounds
compound | inhibition at 100 µM [%]
CC(C)N1CC(C(=O)O)n2c(c(-c3cccc(C(F)(F)F)c3)c(Cc3cccc4ccccc34)c(NC3CCCC3)c2=O)S1(=O)=O (stereo not shown) | 76
CN1CC(C(=O)O)n2c1c(-c1cccc(C(F)(F)F)c1)c(Cc1cccc3ccccc13)c(Br)c2=O (stereo not shown) | 41

Provide measured inhibition at 100 µM value, entry: CN1CC(C(=O)O)n2c(c(-c3cccc(C(F)(F)F)c3)c(Cc3cccc4ccccc34)c(C(N)=O)c2=O)S1(=O)=O (stereo not shown)
99

Return the recorded inhibition at 100 µM value; entry: O=C(O)C1CSc2c(-c3cccc(C(F)(F)F)c3)c(C(F)(F)c3cccc4ccccc34)cc(=O)n21 (stereo not shown)
76

Dear colleague, please send me the reported inhibition at 100 µM for Cn1c(=O)c2c(nc(CCCCCN3CC(C(=O)O)n4c(c(-c5cccc(C(F)(F)F)c5)c(Cc5cccc6ccccc56)cc4=O)S3(=O)=O)n2C)n(C)c1=O (stereo not shown) when you can.
15

Fill in reported inhibition at 100 µM for this entry: CC1(C(=O)O)CNS(=O)(=O)c2c(-c3cccc(C(F)(F)F)c3)c(Cc3cccc4ccccc34)cc(=O)n21 (stereo not shown)
84

Please supply the value of reported inhibition at 100 µM for the item CN1CC(C(=O)O)n2c(c(-c3cccc(C(F)(F)F)c3)c(Cc3cccc4ccccc34)c(NCc3ccccc3)c2=O)S1(=O)=O (stereo not shown)
38

Output measured inhibition at 100 µM for this item: O=C(O)C1C[S+]([O-])c2c(-c3cccc(C(F)(F)F)c3)c(Cc3cccc4ccccc34)cc(=O)n21 (racemic) [Compound 027b]
4

Return inhibition at 100 µM for the following compound: O=C(O)C1CN(CCCCCO)S(=O)(=O)c2c(-c3cccc(C(F)(F)F)c3)c(Cc3cccc4ccccc34)c(NC3CCCC3)c(=O)n21 (stereo not shown)
38

Given the compound CCCN1CC(C(=O)O)n2c(c(-c3cccc(C(F)(F)F)c3)c(Cc3cccc4ccccc34)c(NC3CCOCC3)c2=O)S1(=O)=O (stereo not shown) , write its reported inhibition at 100 µM.
67

For the compound CN(C)C(=O)C1CN(C)S(=O)(=O)c2c(-c3cccc(C(F)(F)F)c3)c(Cc3cccc4ccccc34)cc(=O)n21 (stereo not shown) , give its measured inhibition at 100 µM value.
8

Provide one value: measured inhibition at 100 µM of CCCCCN1CC(C(=O)O)n2c(c(-c3cccc(C(F)(F)F)c3)c(Cc3cccc4ccccc34)cc2=O)S1(=O)=O (single isomer, unassigned) [Compound 025a]
50

Given the compound O=C(O)C1CS(=O)(=O)c2c(-c3cccc(C(F)(F)F)c3)c(Cc3cccc4ccccc34)cc(=S)n21 (single isomer, unassigned) [Compound 014a] , write its reported inhibition at 100 µM.
68
